System: non-tumorigenic human dermal fibroblast cell line (NHDF)
protocol description: MTS in vitro cytotoxicity, NHDF
Type: cell-based
particulars: Homo sapiens, NHDF, 72 h, read-out: IC50 (μM) ± S.E.M. against NHDF
property measured: IC50

>>> result("O=C(/C=C/c1cccc(S(=O)(=O)Nc2ccccc2)c1)NO [belinostat, reference compound]")
"3 µM"

====

System: ovarian cancer cell line A2780 P
protocol description: MTS in vitro cytotoxicity, A2780 P
Format: cell-based, human
particulars: 72 hours, MTS, Table 1; read-out: IC50 values against A2780 P
Protocol: Cells were cultured in the appropriate media. […] In order to retain resistance 1 μM cisplatin was added to the media of the A2780 cisR cells every third passage. […] All cells were kept in a humidified atmosphere with 5% CO2 at 37° C.; cells from confluent monolayers were removed from flasks by trypsin/EDTA solution and their viability determined by the trypan blue exclusion test. […]
property measured: IC50 (µM)

>>> result("N.N.[Cl][Pt][Cl] [cisplatin, cis-[Pt^II(NH3)2Cl2], reference compound]")
2.9
>>> result("[NH2][Pt]1([NH2])[O]C(=O)CC(=O)[O]1 [cis-[Pt(NH3)2(mal)]]")
16
>>> result("[NH2][Pt]1([NH2])[O]C(=O)C(Cc2ccc(NC(=O)CCCCCCC(=O)NO)cc2)C(=O)[O]1 [cis-[Pt(NH3)2(malSAHA−2H)], cis-[Pt(NH3)2(malSAHA−2H)].3H2O]")
9
